Ki values, listed per item
- system_under_test: Human recombinant MMP-9 (Homo sapiens)
- Construct: made in house; host or cells: MMP-9-transfected HT1080 cells (spent media)
- Sequence (P14780 107-707 limits assumed): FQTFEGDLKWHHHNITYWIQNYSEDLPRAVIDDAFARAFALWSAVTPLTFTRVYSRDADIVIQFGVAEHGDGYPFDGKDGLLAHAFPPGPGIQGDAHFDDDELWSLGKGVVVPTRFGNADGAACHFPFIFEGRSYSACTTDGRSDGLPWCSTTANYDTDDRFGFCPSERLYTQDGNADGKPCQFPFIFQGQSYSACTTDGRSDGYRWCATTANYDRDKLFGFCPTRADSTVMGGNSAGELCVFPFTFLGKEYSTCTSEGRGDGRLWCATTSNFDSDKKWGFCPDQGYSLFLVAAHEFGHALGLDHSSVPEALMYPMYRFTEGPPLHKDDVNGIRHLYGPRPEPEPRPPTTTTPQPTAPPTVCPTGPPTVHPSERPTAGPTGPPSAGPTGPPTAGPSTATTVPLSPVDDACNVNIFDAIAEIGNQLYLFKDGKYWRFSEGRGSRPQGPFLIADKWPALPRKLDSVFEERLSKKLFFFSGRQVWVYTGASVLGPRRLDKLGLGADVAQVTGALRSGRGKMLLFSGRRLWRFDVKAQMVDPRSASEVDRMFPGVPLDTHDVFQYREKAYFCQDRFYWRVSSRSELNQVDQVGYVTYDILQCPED
- assay_text: In vitro MMP inhibition analysis (fluorogenic peptide substrate cleavage), Ki
- Type: biochemical
- settings: Table 2
// return numeric value only (unit: nM, not printed)

Worked examples follow.
CCCCc1ccc(-c2ccc(S(=O)(=O)C3(C(=O)NO)CCOCC3)cc2)nc1 | 0.0528
CCN1CCC(C(=O)NO)(S(=O)(=O)c2ccc(-c3ccc(OCCOC)cc3)cc2)CC1 | 3.3
CC(C)CNC(=O)c1cnc(-c2ccc(S(=O)(=O)C3(C(=O)NO)CCOCC3)cc2)cn1 | 21.7

input: Requested field: Ki. Item: O=C(NCC1CC1)c1cnc(-c2ccc(S(=O)(=O)C3(C(=O)NO)CCOCC3)cc2)cn1
output: 1.43

###

- system_under_test: Human recombinant MMP-13 (Homo sapiens)
- Construct: made in house; host or cells: baculovirus / insect cells
- assay_text: In vitro MMP inhibition analysis (fluorogenic peptide substrate cleavage), Ki
- Format: biochemical
- settings: Table 1
Ki values, listed per item

O=C(NO)C1(S(=O)(=O)c2ccc(-c3cnc(CCC4CC4)cn3)cc2)CCOCC1 | 0.71 nM

input: Requested field: Ki. Item: O=C(NO)C1(S(=O)(=O)c2ccc(-c3ccc(CCCC(F)(F)F)cc3)cc2)CCOCC1
output: 0.072 nM

input: Requested field: Ki. Item: COCCN1CCC(C(=O)NO)(S(=O)(=O)c2ccc(-c3cnc(CCC(C)(F)F)cn3)cc2)CC1
output: 0.27 nM

input: Requested field: Ki. Item: CCN1CCC(C(=O)NO)(S(=O)(=O)c2ccc(-c3ccc(CCCC(F)(F)F)cn3)cc2)CC1
output: 0.06 nM

###

- system_under_test: Human recombinant MMP-13 (Homo sapiens)
- Construct: made in house; host or cells: baculovirus / insect cells
- assay_text: In vitro MMP inhibition analysis (fluorogenic peptide substrate cleavage), Ki
- Format: biochemical
- settings: Table 2
- Method: Several compounds and salts were analyzed in an in vitro assay to determine their ability to inhibit the MMP cleavage of peptide substrates. Inhibition constant (Ki) were calculated from the assayed compound-MMP interactions. […] The assays from which the Ki determinations were made were performed as follows. […] In the absence of MMP inhibitory activity, substrate (I) was cleaved at the Gly-Leu bond resulting in an increase of relative fluorescence. […]
pKi: −log10 of the molar value.
Assign 1.0 whenever pKi does not fall below 10; assign 0.0 whenever it does.

Reference set, count: 5
O=C(NO)C1(S(=O)(=O)c2ccc(-c3noc(-c4ccc(F)cc4)n3)cc2)CCOCC1 | 0.0
O=C(NO)C1(S(=O)(=O)c2ccc(-c3cnc(CCC(F)(F)C(F)(F)F)nc3)cc2)CCOCC1 | 0.0
CCCCCc1ccc(-c2ccc(S(=O)(=O)C3(C(=O)NO)CCOCC3)cc2)cc1 | 0.0
COc1ccc(Cc2cnc(-c3ccc(S(=O)(=O)C4(C(=O)NO)CCOCC4)cc3)cn2)cc1 | 0.0
CCCCc1ccc(-c2ccc(S(=O)(=O)C3(C(=O)NO)CCOCC3)cc2)nc1 | 1.0

Moving on to the next molecule.
input: In plain terms: is recorded pKi at least 10 for O=C(NO)C1(S(=O)(=O)c2ccc(-c3cnc(N4CCCCC4)cn3)cc2)CCOCC1 ?
output: 0.0
